biological target: ligand binding domain of human RORγ (A262-S507) (Homo sapiens, UniProt P51449); construct: made in house; host or cells: E. coli; experiment: General RORγ SPA binding assay (competition with [3H]25-hydroxycholesterol); details: RORγ SPA binding assay, inhibition of [3H]25-hydroxycholesterol binding; read-out: IC50
Sequence (P51449 262-507): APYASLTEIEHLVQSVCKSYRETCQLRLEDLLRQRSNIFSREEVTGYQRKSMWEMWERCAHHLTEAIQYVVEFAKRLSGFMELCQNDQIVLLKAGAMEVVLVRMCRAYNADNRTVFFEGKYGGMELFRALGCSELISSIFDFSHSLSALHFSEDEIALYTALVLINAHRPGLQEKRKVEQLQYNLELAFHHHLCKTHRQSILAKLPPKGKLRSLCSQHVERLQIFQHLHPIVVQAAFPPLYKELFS
Parameter pIC50: see the listing below.
Keep in mind that pIC50 stands for -log10 of concentration in molar terms.

Cc1nc(C)c(C(=O)NCc2ccnc(C(F)(F)F)c2)c(C2CCN(C(=O)Cc3c(F)cccc3F)CC2)n1 | 7.42
Cc1ncc(/C(CO)=N\Oc2ccnc(C(F)(F)F)n2)c(C2CCN(C(=O)Cc3c(F)cccc3F)CC2)n1 | 7.02
Cc1cc(C)cc(NCC(C)(O)c2cnc(C)nc2C2CCN(C(=O)Cc3c(F)cccc3F)CC2)c1 (stereo not shown) | 8.30
Cc1cc(C)cc(CNC(=O)c2cnc(C)nc2C2CCN(C(=O)C(F)(F)c3c(F)cccc3F)CC2)c1 | 7.43
Cc1ncc(C(F)(F)CNc2nccc(C(F)(F)F)n2)c(C2CCN(C(=O)Nc3c(F)cccc3F)CC2)n1 | 7.67

Input: Check ligand binding domain of human RORγ (A262-S507) (Homo sapiens, UniProt P51449) data and give pIC50 for "Cc1nc(C)c(-c2nnc(-c3ccnc(C(F)(F)F)n3)o2)c(C2CCN(C(=O)Nc3ccccc3C(F)(F)F)CC2)n1" .
Output: 7.30

Input: Check ligand binding domain of human RORγ (A262-S507) (Homo sapiens, UniProt P51449) data and give pIC50 for "Cc1cc(C)cc(CNC(=O)c2cncnc2C2CCN(C(=O)Cc3c(F)cccc3F)CC2)c1" .
Output: 7.66
